Test: Quantitative High-Throughput drug screen in 47 multiple myeloma cell lines against the NCATS MIPE library collection: KMS12BM_JCRB cell viability assay (AID 1918971); note: nearly all actives have a fitted effect of over 35% in size
Details: KMS12BM myeloma viability, CellTiter-Glo ATP, 48 h; series mostly up to 45.8 µM
Records with an inconclusive call do not appear. Active and inactive are the calls of the source. Calls come from the whole dose curve; as a rule, active = well fitted cell-killing curve with a large enough effect; inconclusive = small, poorly fitted or top-dose-only effect, or effect the other way; inactive = no such curve, though single readings can be large or run the other way.
Classes used: active, inactive

# compound.string, class.assignment
records = [
    ("CSc1cccc(Nc2ncc3cc(-c4c(Cl)cccc4Cl)c(=O)n(C)c3n2)c1", "active"),
    ("Nc1[nH]nc2nnc(-c3c(-c4ccccc4)nn4ccccc34)cc12", "inactive"),
    ("O=C(Nc1ccc(OC(F)(F)F)cc1)c1sccc1NCc1ccnc2ccccc12", "active"),
    ("CCCCC[C@H](O)C=C[C@H]1[C@H](O)CC(=O)[C@H]1CC=CCCCC(=O)O", "active"),
    ("O=C(O)CCNc1cc(N2CCc3ccccc3CC2)nc(-c2ccccn2)n1", "active"),
]

---

Below, each of the molecules is paired with its reported viability, percent of control value.
Assay: Cell Proliferation Assay against the HBL1 Cell Line (AID 651646);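 note: cells exposed to compound for 48 h before reading; 100% = DMSO and 0% = 9.2 µM bortezomib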
Conditions: HBL1 DLBCL cells; at 46.1 µM (top of the series)
readout.label: viability, percent of control (%)

# molecule, reading
data = [
    ("Cc1ccc(NC(=O)c2ccc(CN3CCN(C)CC3)cc2)cc1Nc1nc(-c2cccnc2)cs1", 11),
    ("CN(C)CCN(C)C(=O)c1ccc(NC(=O)Nc2ccc(-c3nc(N4CCOCC4)c4ccn(CC(F)(F)F)c4n3)cc2)cc1", 1.25),
    ("COc1cc2nccc(Oc3ccc(NC(=O)Nc4cc(C)on4)c(Cl)c3)c2cc1OC", 26.7),
    ("O=C1C(CCC(O)c2ccc(F)cc2)C(c2ccc(O)cc2)N1c1ccc(F)cc1 (stereo not given)", 68),
    ("O=C(O)Cc1cccc(OCCCN(Cc2cccc(C(F)(F)F)c2Cl)CC(c2ccccc2)c2ccccc2)c1", 12.9),
]

---

Experiment: Quantitative High-Throughput drug screen in 47 multiple myeloma cell lines against the NCATS MIPE library collection: KMS11_JCRBsus cell viability assay (AID 1919873); note: nearly all actives have a fitted effect of over 50% in size
Conditions: KMS11 myeloma viability, CellTiter-Glo ATP luminescence, 48 h; series mostly up to 45.8 µM
Results filed as inconclusive are left out. Activity calls are given as the source filed them. The call rests on the fitted dose curve; in most records, active means well fitted cell-killing curve with a large enough effect; inconclusive means small, poorly fitted or top-dose-only effect, or effect the other way; inactive means no such curve, though single readings can be large or run the other way.
Classes used: active, inactive

# compound, class.assignment
data = [
    ("O=c1[nH]nc(OCCCc2ccc(Cl)cc2)c(NCc2cccnc2)c1Br", "active"),
    ("NCc1c[nH]c(=S)n1[C@H]1CCc2c(F)cc(F)cc2C1", "active"),
    ("C[C@H]1O[C@@H](n2cc(F)c(=O)[nH]c2=O)[C@H](O)[C@H]1O", "active"),
    ("O=C(NCCCCN1CCOCC1)c1cc2ccccc2o1", "inactive"),
    ("N#CC(c1ccnc(NCCc2cccnc2)n1)c1nc2ccccc2s1 (centres undefined)", "active"),
    ("CN[C@@H]1[C@@H](O)[C@@H](O[C@@H]2[C@@H](O)[C@H](O[C@H]3O[C@H](CN)[C@@H](O)[C@H](O)[C@@H]3O)[C@@H](N)C[C@@H]2NC(=O)[C@@H](O)CN)OC[C@]1(C)O", "active"),
    ("CC(C)n1c(C=C[C@H](O)C[C@H](O)CC(=O)O)c(-c2ccc(F)cc2)c2ccccc21", "active"),
    ("CCC[C@H](N[C@@H](C)C(=O)N1[C@@H]2CCCC[C@H]2C[C@H]1C(=O)O)C(=O)OCC", "inactive"),
    ("CC(=O)O[C@]1(C(C)=O)CC[C@H]2[C@@H]3C=C(Cl)C4=CC(=O)[C@@H]5C[C@H]5[C@]4(C)[C@@H]3CC[C@@]21C", "inactive"),
    ("O=C(Nc1ccc(OC(F)(F)F)cc1)c1sccc1NCc1ccnc2ccccc12", "active"),
    ("O=C1C(CCC(O)c2ccc(F)cc2)C(c2ccc(O)cc2)N1c1ccc(F)cc1 (centres undefined)", "inactive"),
    ("COc1cc(N2CCN(C)CC2)ccc1Nc1nc(N)c(C(=O)c2c(Cl)cccc2Cl)s1", "active"),
    ("CCOC(=O)[C@H](CCc1ccccc1)N[C@@H](C)C(=O)N1CCCC1C(=O)O (some centres undefined)", "inactive"),
    ("O=c1cc(-c2ccc(O)c(O)c2)oc2cc(O)cc(O)c12", "inactive"),
    ("CN(C)c1ccc(-c2nc3ncc(Cl)c(N4CCN(CC(=O)Nc5nccs5)CC4)c3[nH]2)cc1", "active"),
    ("Nc1[nH]nc2nnc(-c3c(-c4ccccc4)nn4ccccc34)cc12", "active"),
    ("CCCCC[C@H](O)C=C[C@H]1[C@H](O)CC(=O)[C@H]1CCCCCCC(=O)O", "inactive"),
    ("CC(C)(F)C[C@H](N[C@@H](c1ccc(-c2ccc(S(C)(=O)=O)cc2)cc1)C(F)(F)F)C(=O)NC1(C#N)CC1", "inactive"),
    ("NCC1CCC(C(=O)O)CC1 (centres undefined)", "inactive"),
]

Reference source: PubChem BioAssay (NCATS)
